Data origin, for the record: PubChem BioAssay

test: probe aNOTCH2 binding on compound microarray – biochemical, small-molecule microarray, 635/667 nm fluorescence, primary screen (AID 1121); details: higher = more signal;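 further: score merges feature fluorescence read at 667 nm with its signal to noise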
The threshold is inclusive: composite z-score of exactly -0.1 counts as yes (1); values below receive no (0).

{"columns": ["compound", "category"],
 "data": [
  ["CC(C)c1ccc(NN2C(C(O)c3ccc(F)cc3)C=CC3C(=O)N(c4ccccc4)C(=O)C32)cc1 (stereo not drawn)", "yes (1)"],
  ["COC(=O)[C@]1(CCS(=O)(=O)c2ccccc2)N=C(c2ccc(OCCCO)cc2)O[C@@H]1c1ccccc1N=[N+]=[N-]", "yes (1)"],
  ["CCOC(=O)C=Cc1cccc(C)c1O", "no (0)"],
  ["COc1cc2c(cc1O)C=[N+](Cc1sc3ccccc3c1Cl)CC2", "yes (1)"],
  ["C=CC[C@]1(C(=O)N2CCCCC2)N=C(c2ccc(OCCCO)cc2)O[C@H]1c1ccccc1CN=[N+]=[N-]", "no (0)"],
  ["[N-]=[N+]=Nc1ccccc1[C@@H]1OC(c2ccc(OCCCO)cc2)=N[C@]1(Cc1ccccc1)C(=O)O", "yes (1)"],
  ["COCCOC(=O)N1C(=O)[C@@]2(c3cc(C#CC4=CCCCC4)ccc31)[C@H](C(=O)Nc1nc3ccccc3s1)[C@H]1C(=O)O[C@H](c3ccccc3)[C@H](c3ccccc3)N1[C@@H]2c1ccc(O)cc1", "no (0)"]
]}
